Cited source: patent US12077503B2

Tested on: velvetleaf (Abutilon theophrasti)
Experiment: Test G Pre-Emergence Protocol
Type: in vivo
Conditions: Abutilon theophrasti, pre-emergence, 312 h, 62.5 g ai/ha, evaluated after 13 days, 100=total damage to plant, 0=no damage to plant, read-out: Velvetleaf damage rating
Exercise: for every item that follows, state its recorded pest or weed control at 62.5 g/ha.
Answers are plain numbers, in %.

// solved cases for pest or weed control at 62.5 g/ha follow
compound="CCOc1cc([C@@H]2CN(C)C(=O)[C@H]2C(=O)Nc2cccc(F)c2F)cc(C(F)(F)F)n1 (racemic)" measurement=0
compound="CN1C[C@H](c2cccc(C(F)F)c2)[C@@H](C(=O)Nc2cnccc2C(F)(F)F)C1=O (racemic)" measurement=0
compound="COc1c(C)cc(C2CN(C)C(=O)C2C(=O)Nc2cccc(F)c2F)cc1C (stereo not drawn)" measurement=10
compound="CON1C[C@@H](c2cccc(C(F)(F)F)c2)[C@H](C(=O)Nc2cccc(F)c2F)C1=O (racemic)" measurement=0
compound="CN1CC(c2cc(F)cc(OCC(F)(F)F)c2)C(C(=O)Nc2cccc(F)c2F)C1=O (stereo not drawn)" measurement=10

For each listed entry, give its pest or weed control at 62.5 g/ha.
1. CN1C[C@H](c2cccc(C(C)(C)C#N)c2)[C@@H](C(=O)Nc2ccccc2S(C)(=O)=O)C1=O (racemic)
2. CN1C[C@@H](c2ccc(C(F)(F)F)cc2)[C@H](C(=O)Nc2cncc(F)n2)C1=O (racemic)
3. Cc1c(F)cccc1NC(=O)[C@@H]1C(=O)N(C)C[C@H]1c1cccc(C(C)(C)O)c1 (racemic)
4. COc1cc(C2CN(C)C(=O)C2C(=O)Nc2cccc(F)c2F)cc(OC)c1F (stereo not drawn)

[0, 0, 0, 0]

---

System: redroot pigweed (Amaranthus retroflexus)
Assay: Test G Pre-Emergence Protocol
Type: in vivo
Settings: Amaranthus retroflexus, pre-emergence, 312 h, 250 g ai/ha, evaluated after 13 days, read-out: Pigweed, Redroot damage rating (100=total damage to plant; 0=no damage to plant)
PARAMETER_MEASURED: pest or weed control at 250 g/ha

// solved cases for pest or weed control at 250 g/ha follow
compound="CN1C[C@H](c2ccc(C(F)(F)F)cc2)[C@@H](C(=O)Nc2ccc(F)cc2[N+](=O)[O-])C1=O (racemic)" parameter_measured="pest or weed control at 250 g/ha" measurement=0%
compound="CN1CC(c2cc(F)cc(OCC(F)(F)F)c2)C(C(=O)Nc2cccc(F)c2F)C1=O (stereo not shown)" parameter_measured="pest or weed control at 250 g/ha" measurement=40%

For each listed entry, give its pest or weed control at 250 g/ha.
1. Cc1c(F)cccc1NC(=O)[C@@H]1C(=O)N(C)C[C@H]1c1cccc(OCC2CC2)c1 (racemic)
2. CN1C[C@@H](c2ccc(C(F)(F)F)cc2)[C@H](C(=O)Nc2ccc(F)cc2C(F)(F)F)C1=O (racemic)

1. 0%
2. 60%

---

Test system: corn (Zea mays)
Assay: Test G Post-Emergence Protocol
Format: in vivo
Details: Zea mays, post-emergence, 312 h, 62.5 g ai/ha, evaluated after 13 days, 100=total damage to plant, 0=no damage to plant, read-out: Corn damage rating
PARAMETER_MEASURED: plant injury at 62.5 g/ha (%)
Answers are plain numbers, in %.

compound="COc1c(C)cc(C2CN(C)C(=O)C2C(=O)Nc2cccc(F)c2F)cc1C (centres unmarked)" measurement=70
compound="COC(=O)c1cc([C@H]2CN(C)C(=O)[C@@H]2C(=O)Nc2cccc(F)c2F)ccc1F (racemic)" measurement=0
compound="CN1CC(c2cc(F)cc(OCC(F)(F)F)c2)C(C(=O)Nc2cccc(F)c2F)C1=O (centres unmarked)" measurement=70
compound="CCOc1ccc([C@@H]2CN(C)C(=O)[C@H]2C(=O)Nc2cccc(F)c2C)cc1Cl (racemic)" measurement=0
compound="Cc1nc(F)ccc1NC(=O)[C@@H]1C(=O)N(C)C[C@H]1c1ccc(C(F)(F)F)cc1 (racemic)" measurement=0

For each listed entry, give its plant injury at 62.5 g/ha.
1. COc1cc(C2CN(C)C(=O)C2C(=O)Nc2cccc(F)c2F)cc(OC)c1F (centres unmarked)
2. CN1C[C@@H](c2ccc(C(F)(F)F)cc2)[C@H](C(=O)Nc2cncc(F)n2)C1=O (racemic)
3. CCOc1ccc(C2CN(C)C(=O)C2C(=O)Nc2cccc(F)c2F)cc1F (centres unmarked)

1: 10; 2: 10; 3: 0
